B1: tRNA (parent)
chain: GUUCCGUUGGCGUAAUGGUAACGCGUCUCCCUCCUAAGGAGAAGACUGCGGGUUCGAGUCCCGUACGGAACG

Variants of: B1
protocolDetails: yeast fitness relative to wild type (ratio to wild type); higher = fitter; tRNA-Arg(CCU), competitive growth, 37 C, YPD
Variants at the floor of the assay were thinned out.
resultType: yeast fitness

Please review the entries below; each comes with its answer.
GUUCUGUUGGCGUAAUGGUGAGGCGUCUACCUCCUAAGGAGAAGUCUGCGGGUUCGAGUCCCGUACGGAACG = 0.563
GUACCGUUGGCGUCAUGGUAACGGGUCUCCCUGCUAAGGAGAAGACUGCGGGUUCGAGUCCCGUACGGAACG = ≤ 0.5
GUUCCGGUGGCGUGAUGGUAACGCGUCUCCCUCCGAAGGAGAGGACUGCGGGUUCGAGUCCCGUACGGAACG = 0.557
GUCCCGUUGGCGUAAUGGUAACGCGUCUCCCUCCUAAGGAGAAGACUGCAGGUUCGGGUCCCGUACGGAACG = 0.632
GUUCCGUUGGUGUAAUGGUAACGCGUCUCCGUCGUAAGGAGAUGACUGCGGGUUCGAGUCCCGUACGCAACG = 0.571
GUUCCGUUCGCGUAAUGGUAACGCGUGUGCCUCCUCAGGAGAAGACUGCGGGUUCGAGUCCCGUACGGAACG = ≤ 0.5
GUUCCGUUGGCAUAAUGGUAACGCGUCUCCCUCCUUAGGAGAAGACUGCGGGUUCGAGUCCCGUACGGAACG = 0.612
GUUCCGUUGGCGUUAUGGUAACGCGUCUCCCUCCUAAGGAGAAGACUGCGGGUUCGAGUCCCGUGGGGAACG = 0.788

I am curious: what yeast fitness value has been reported for GUUCCGUUGGCGUAAUGGUAACGCGUCUCCCACCUAAGGACAAGACUGCGGGUUCGAGUCCCGUUCGGAACG ?
≤ 0.5

Can you check GUUCCGUUGGCGUAAUGGUGACGCGUCACGCUCCUAAGGAGAAGACUGCGGGUUCGAGCCCCGUACGGAACG next?
≤ 0.5

Can you check GUUCCGUUGGCGUAAUGGCAACGGGUCUCCCUCCUAUGGAGAAGACAGCGGGUUCGAGUCCCGUAAGGAACG next?
≤ 0.5
